- test.summary: Dissociation constant, pKa of the compound
- Type: physicochemical

[
  {
    "mol": "Cl.O=c1[nH]c(-c2ccn(C[C@@H]3CNCCO[C@H]3c3ccc(Cl)c(F)c3)c(=O)c2)no1",
    "pKa": 5.89
  },
  {
    "mol": "Cl.O=c1c(-c2nnn[nH]2)cccn1C[C@@H]1CNCCO[C@H]1c1ccc(Cl)c(F)c1",
    "pKa": 3.88
  },
  {
    "mol": "Cl.O=c1[nH]c(-c2cccn(C[C@@H]3CNCCO[C@H]3c3ccc(Cl)c(F)c3)c2=O)no1",
    "pKa": 5.45
  },
  {
    "mol": "Cl.O=c1[nH]c(-c2cccc(=O)n2C[C@@H]2CNCCO[C@H]2c2ccc(Cl)c(F)c2)no1",
    "pKa": 6.35
  },
  {
    "mol": "Cl.O=c1[nH]c(-c2ccc(=O)n(C[C@@H]3CNCCO[C@H]3c3ccc(Cl)c(F)c3)c2)no1",
    "pKa": 5.72
  }
]
